Test system: Staphylococcus aureus 209P strain
Experiment: MIC for Staphylococcus aureus 209P strain
Assay type: cell-based
Settings: Staphylococcus aureus; 209P strain; regular bouillon medium, 37° C. overnight, turbidity; read-out: MIC Straphyrococcus aureus 209P
Threshold check on MIC: strictly below 60 µg/mL is true; on or above 60 µg/mL is false.

QUERY: Regarding CCCCNC(=O)N1C(=O)C(=C(O)C2CCC(CCCC)CC2)c2ccccc21 (stereo not drawn) , kindly confirm whether its MIC is beneath 60 µg/mL.
RESULT: false

QUERY: Regarding CCCCCCCCCC(=O)c1c(O)c2ccc(OC)cc2oc1=O [B001, 3-decanoyl-4-hydroxy-7-methoxycoumarin] , kindly confirm whether its MIC is beneath 60 µg/mL.
RESULT: false

QUERY: Regarding CCCCCCCCCC(O)=C1C(=O)N(C(=O)Nc2ccccc2)c2ccc(Br)cc21 , kindly confirm whether its MIC is beneath 60 µg/mL.
RESULT: false

QUERY: Regarding CCCCCCCCCCSCC(=O)c1c(O)c2cc(F)ccc2oc1=O , kindly confirm whether its MIC is beneath 60 µg/mL.
RESULT: true

QUERY: Regarding CCCCCCCCCCOCC(O)=C1C(=O)N(C(=O)Nc2ccccc2)c2ccccc21 , kindly confirm whether its MIC is beneath 60 µg/mL.
RESULT: false

QUERY: Regarding CCCCCCCCCCOCC(=O)c1c(O)c2cc(F)ccc2oc1=O , kindly confirm whether its MIC is beneath 60 µg/mL.
RESULT: false

QUERY: Regarding CCCCCCCCCCOCC(O)=C1C(=O)N(C(=O)Nc2ccc(F)cc2)c2ccccc21 , kindly confirm whether its MIC is beneath 60 µg/mL.
RESULT: false

QUERY: Regarding CCCCCCCCCC(=O)N1C(=O)C(=C(C)O)c2ccccc21 , kindly confirm whether its MIC is beneath 60 µg/mL.
RESULT: true

QUERY: Regarding CCCCCCCCCCOCC(O)=C1C(=O)N(C(C)=O)c2ccc(Br)cc21 , kindly confirm whether its MIC is beneath 60 µg/mL.
RESULT: false

QUERY: Regarding CCCCCCCCCC(=O)N1C(=O)C(=C(O)c2ccc(Cl)cc2)c2ccccc21 , kindly confirm whether its MIC is beneath 60 µg/mL.
RESULT: false

QUERY: Regarding CCCCC1CCC(C(=O)c2c(O)c3cc(F)ccc3oc2=O)CC1 (stereo not drawn) , kindly confirm whether its MIC is beneath 60 µg/mL.
RESULT: true

QUERY: Regarding CCCCC1CCC(C(O)=C2C(=O)N(C(=O)OC(C)(C)C)c3cc(Cl)ccc32)CC1 (stereo not drawn) , kindly confirm whether its MIC is beneath 60 µg/mL.
RESULT: false

QUERY: Regarding CCCCCCCCCC(=O)N1C(=O)/C(=C(\O)c2ccccc2)c2cc(F)ccc21 , kindly confirm whether its MIC is beneath 60 µg/mL.
RESULT: false

QUERY: Regarding CCCCCCCCCCOCC(O)=C1C(=O)N(C(=O)OC(C)(C)C)c2cc(Cl)ccc21 , kindly confirm whether its MIC is beneath 60 µg/mL.
RESULT: false

QUERY: Regarding CCCCC1CCC(C(O)=C2C(=O)N(C(=O)Nc3ccccc3)c3ccccc32)CC1 (stereo not drawn) , kindly confirm whether its MIC is beneath 60 µg/mL.
RESULT: false

QUERY: Regarding CCCCC1CCC(C(O)=C2C(=O)N(C(=O)OC(C)(C)C)c3ccccc32)CC1 (stereo not drawn) , kindly confirm whether its MIC is beneath 60 µg/mL.
RESULT: false

QUERY: Regarding CCCCCCCCCCOC(C)C(O)=C1C(=O)N(C(=O)NCCCC)c2ccccc21 (stereo not drawn) , kindly confirm whether its MIC is beneath 60 µg/mL.
RESULT: false

QUERY: Regarding CCCCCCCCCC(=O)N1C(=O)/C(=C(\O)COC)c2cc(F)ccc21 , kindly confirm whether its MIC is beneath 60 µg/mL.
RESULT: false

QUERY: Regarding CCCCCCCCCCSCC(O)=C1C(=O)N(C(=O)Nc2ccccc2)c2ccc(F)cc21 , kindly confirm whether its MIC is beneath 60 µg/mL.
RESULT: true

QUERY: Regarding CCCCCCCCCCOC(C)C(=O)c1c(O)c2ccccc2oc1=O (stereo not drawn) , kindly confirm whether its MIC is beneath 60 µg/mL.
RESULT: true

QUERY: Regarding CCCCCCCCNC(=O)c1c(O)c2ccccc2oc1=O [B020, 3-(octylaminocarbonyl)-4-hydroxycoumarin] , kindly confirm whether its MIC is beneath 60 µg/mL.
RESULT: true

QUERY: Regarding CCCCCCCCCC(O)=C1C(=O)Nc2ccccc21 , kindly confirm whether its MIC is beneath 60 µg/mL.
RESULT: true

QUERY: Regarding CCCCC1CCC(C(O)=C2C(=O)N(C(=O)Nc3ccc(Br)cc3)c3ccccc32)CC1 (stereo not drawn) , kindly confirm whether its MIC is beneath 60 µg/mL.
RESULT: false

QUERY: Regarding CCCCCCCCOCC(O)=C1C(=O)N(C(C)=O)c2ccccc21 , kindly confirm whether its MIC is beneath 60 µg/mL.
RESULT: true

QUERY: Regarding CCCCCCCCCC(=O)N1C(=O)/C(=C(\O)COC)c2ccccc21 , kindly confirm whether its MIC is beneath 60 µg/mL.
RESULT: false

QUERY: Regarding CCCCCCCCCC(=O)NCC(=O)c1c(O)c2ccccc2oc1=O [B016, 3-decanoylaminoacetyl-4-hydroxycoumarin] , kindly confirm whether its MIC is beneath 60 µg/mL.
RESULT: false

QUERY: Regarding CCCCCCCCCC(O)=C1C(=O)N(C(=O)OC(C)(C)C)c2cc(Cl)ccc21 , kindly confirm whether its MIC is beneath 60 µg/mL.
RESULT: false

QUERY: Regarding CCCCC1CCC(C(O)=C2C(=O)N(C(=O)Nc3ccc(F)cc3)c3ccccc32)CC1 (stereo not drawn) , kindly confirm whether its MIC is beneath 60 µg/mL.
RESULT: false

QUERY: Regarding CCCCCCCCCC(=O)NCC(O)=C1C(=O)N(C(=O)OC(C)(C)C)c2ccccc21 , kindly confirm whether its MIC is beneath 60 µg/mL.
RESULT: false

QUERY: Regarding CCCCCCCCCCOCC(O)=C1C(=O)N(C(=O)Nc2ccc(Br)cc2)c2ccccc21 , kindly confirm whether its MIC is beneath 60 µg/mL.
RESULT: false

QUERY: Regarding CCCCCCCCCC(=O)N1C(=O)C(=C(O)CCCCCCCCC)c2ccccc21 , kindly confirm whether its MIC is beneath 60 µg/mL.
RESULT: true

QUERY: Regarding CC(C)[C@H]1CC[C@H](C)CC1OCC(=O)c1c(O)c2ccccc2oc1=O (stereo in doubt) [B006, 4-hydroxy-3-menthyloxyacetylcoumarin] , kindly confirm whether its MIC is beneath 60 µg/mL.
RESULT: true

QUERY: Regarding CCCCCCCCNC(=O)c1c(O)c2cc(F)ccc2oc1=O , kindly confirm whether its MIC is beneath 60 µg/mL.
RESULT: false
